biological target: Porcine ventricle myofibrils (ventricular myosin ATPase) (Sus scrofa, UniProt P79293); construct: Myofibrils from porcine cardiac muscle was isolated from the left ventricle of Yucatan minipigs; tissue Exemplar Genetics; host or cells: left ventricle of Yucatan minipigs, myofibrils prepared in house; experiment: Myofibril ATPase assay, porcine ventricle myofibrils; type: biochemical, porcine (Yucatan minipigs); settings: porcine ventricle myofibrils; Y75 value
Sequence (P79293 whole entry): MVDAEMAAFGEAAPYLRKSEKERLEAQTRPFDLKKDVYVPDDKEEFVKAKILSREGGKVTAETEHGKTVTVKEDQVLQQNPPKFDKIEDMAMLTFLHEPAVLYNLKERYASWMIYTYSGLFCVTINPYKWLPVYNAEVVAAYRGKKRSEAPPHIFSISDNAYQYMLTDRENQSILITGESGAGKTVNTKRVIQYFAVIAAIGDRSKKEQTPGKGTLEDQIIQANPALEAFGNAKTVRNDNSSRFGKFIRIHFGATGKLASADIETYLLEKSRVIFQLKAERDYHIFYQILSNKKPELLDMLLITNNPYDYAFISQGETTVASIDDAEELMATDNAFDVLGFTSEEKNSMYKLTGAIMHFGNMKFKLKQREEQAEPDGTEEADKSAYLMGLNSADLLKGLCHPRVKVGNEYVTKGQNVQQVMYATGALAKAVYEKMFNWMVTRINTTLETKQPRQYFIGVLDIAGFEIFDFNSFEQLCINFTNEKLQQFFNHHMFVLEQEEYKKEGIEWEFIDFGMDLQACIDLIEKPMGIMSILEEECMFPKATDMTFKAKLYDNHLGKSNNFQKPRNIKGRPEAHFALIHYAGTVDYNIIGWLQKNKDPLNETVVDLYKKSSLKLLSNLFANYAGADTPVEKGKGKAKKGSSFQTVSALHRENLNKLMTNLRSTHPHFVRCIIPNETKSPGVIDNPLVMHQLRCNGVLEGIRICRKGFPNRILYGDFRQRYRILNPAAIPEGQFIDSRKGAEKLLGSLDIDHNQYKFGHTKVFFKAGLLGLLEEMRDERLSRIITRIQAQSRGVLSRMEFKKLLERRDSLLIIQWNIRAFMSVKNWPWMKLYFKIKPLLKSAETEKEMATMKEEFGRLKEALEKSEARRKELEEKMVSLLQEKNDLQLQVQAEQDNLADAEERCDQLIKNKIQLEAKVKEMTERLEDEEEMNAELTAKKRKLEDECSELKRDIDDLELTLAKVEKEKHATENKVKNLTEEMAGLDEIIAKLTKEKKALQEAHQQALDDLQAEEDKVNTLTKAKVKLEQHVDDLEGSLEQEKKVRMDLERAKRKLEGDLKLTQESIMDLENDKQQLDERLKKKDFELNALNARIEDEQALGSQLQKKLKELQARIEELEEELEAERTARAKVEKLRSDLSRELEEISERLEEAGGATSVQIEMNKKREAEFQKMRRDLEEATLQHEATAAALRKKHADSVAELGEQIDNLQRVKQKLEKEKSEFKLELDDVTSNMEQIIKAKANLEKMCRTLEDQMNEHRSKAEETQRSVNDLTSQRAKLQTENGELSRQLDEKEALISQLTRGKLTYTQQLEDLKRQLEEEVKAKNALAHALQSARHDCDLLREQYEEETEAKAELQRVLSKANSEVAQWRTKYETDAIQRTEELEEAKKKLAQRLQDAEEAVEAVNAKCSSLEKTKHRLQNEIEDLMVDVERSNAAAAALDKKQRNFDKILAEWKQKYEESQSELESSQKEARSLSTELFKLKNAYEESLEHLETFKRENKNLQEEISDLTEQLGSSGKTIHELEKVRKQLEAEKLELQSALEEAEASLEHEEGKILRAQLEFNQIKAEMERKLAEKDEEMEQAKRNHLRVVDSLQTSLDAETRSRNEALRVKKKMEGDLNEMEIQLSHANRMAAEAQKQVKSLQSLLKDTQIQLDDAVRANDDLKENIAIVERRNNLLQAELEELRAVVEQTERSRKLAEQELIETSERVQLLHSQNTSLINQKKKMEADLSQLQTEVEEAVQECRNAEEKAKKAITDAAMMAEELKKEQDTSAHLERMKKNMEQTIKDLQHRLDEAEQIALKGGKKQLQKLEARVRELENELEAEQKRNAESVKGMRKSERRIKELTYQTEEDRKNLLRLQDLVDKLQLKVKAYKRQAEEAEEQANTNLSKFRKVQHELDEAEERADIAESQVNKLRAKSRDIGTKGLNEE
reported-property: Ventricular EC25 (µM)

>  <compound>
Cc1nccc2[nH]c(=O)c(CC(=O)NC[C@@H](CO)c3ccccc3)c(C)c12

>  <recorded-result>
100.00

$$$$
>  <compound>
Cc1c(CC(=O)N[C@H](CO)c2ncc(C#N)cc2F)c(=O)[nH]c2cnnc(C#N)c12

>  <recorded-result>
100.00

$$$$
>  <compound>
Cc1nccc2[nH]c(=O)c(CC(=O)N[C@@H](C)c3cccc(O)c3)c(C)c12 (single isomer, unassigned)

>  <recorded-result>
100.00

$$$$
>  <compound>
Cc1nccc2[nH]c(=O)c(CC(=O)N[C@@H](CO)c3ccc(F)cc3F)c(C)c12 (single isomer, unassigned)

>  <recorded-result>
3.32

$$$$
>  <compound>
C[C@H](NC(=O)Cc1cc2nc(C(F)(F)F)ccc2[nH]c1=O)c1ccc(F)cc1F

>  <recorded-result>
32.40

$$$$
>  <compound>
Cc1c(C(F)(F)C(=O)N[C@H](C)c2ncc(C#N)cc2F)c(=O)[nH]c2ccnc(C#N)c12 (single isomer, unassigned)

>  <recorded-result>
1.30

$$$$

----------
System: Rabbit Psoas myofibrils (skeletal myosin ATPase)
Test: Myofibril ATPase assay, rabbit psoas (skeletal) myofibrils
Type: biochemical
Details: rabbit psoas myofibrils; Y75 value
Description: Example 1. Myofibril ATPase Assay Myofibril ATPase assays are known in the art to be useful in evaluating small molecules for the treatment of HCM and other cardiac indications. Myosin ATPase activity is assessed by using a coupled reaction system, in which ADP generated by the myosin ATPase function is coupled to the disappearance of NADH through the pyruvate kinase/lactate dehydrogenase (PK-LDH) system. […]

>  <compound>
C[C@H](NC(=O)[C@@H](C)c1cc2c(Br)nccc2[nH]c1=O)c1ccc(F)cc1F (single isomer, unassigned) [compound 344]

>  <value-units>
nM

>  <Skeletal EC25>
230

$$$$
>  <compound>
Cc1nccc2[nH]c(=O)c(C(F)(F)C(=O)N[C@@H](C)c3ccc(F)cc3F)c(C)c12 [compound 405]

>  <value-units>
nM

>  <Skeletal EC25>
40

$$$$
>  <compound>
Cc1c(CC(=O)N[C@H]2COc3cc(F)cc(F)c32)c(=O)[nH]c2ccnc(C#N)c12 (single isomer, unassigned) [compound 274]

>  <value-units>
nM

>  <Skeletal EC25>
20

$$$$
>  <compound>
C[C@@H](NC(=O)Cc1c(C2CC2)c2cnccc2[nH]c1=O)c1ncc(C#N)cc1F [compound 142]

>  <value-units>
nM

>  <Skeletal EC25>
100000

$$$$

----------
biological target: Porcine ventricle myofibrils (ventricular myosin ATPase) (Sus scrofa, UniProt P79293); construct: Myofibrils from porcine cardiac muscle was isolated from the left ventricle of Yucatan minipigs; tissue Exemplar Genetics; host or cells: left ventricle of Yucatan minipigs, myofibrils prepared in house; experiment: Myofibril ATPase assay, porcine ventricle myofibrils; type: biochemical, porcine (Yucatan minipigs); details: Y75 value (no ‡ mark); porcine ventricle myofibrils

>  <compound>
Cc1c(C2(C(=O)N[C@H](C)c3ncc(C#N)cn3)CC2)c(=O)[nH]c2cccc(C#N)c12 (single isomer, unassigned)

>  <target-system>
Porcine ventricle myofibrils (ventricular myosin ATPase) (Sus scrofa, UniProt P79293)

>  <Ventricular EC25>
4.00 µM

$$$$
>  <compound>
Cc1cc(C#N)ccc1[C@H](C)NC(=O)Cc1c(O)c2cc(F)c(F)cc2[nH]c1=O

>  <target-system>
Porcine ventricle myofibrils (ventricular myosin ATPase) (Sus scrofa, UniProt P79293)

>  <Ventricular EC25>
42.07 µM

$$$$
>  <compound>
C[C@H](NC(=O)C1(c2cc3c(F)c(F)ccc3[nH]c2=O)CC1)c1cnc(C#N)cn1 (single isomer, unassigned)

>  <target-system>
Porcine ventricle myofibrils (ventricular myosin ATPase) (Sus scrofa, UniProt P79293)

>  <Ventricular EC25>
100.00 µM

$$$$
>  <compound>
Cc1c(C(F)(F)C(=O)N[C@H](C)c2ncc(C#N)cc2F)c(=O)[nH]c2ccc(F)cc12 (single isomer, unassigned)

>  <target-system>
Porcine ventricle myofibrils (ventricular myosin ATPase) (Sus scrofa, UniProt P79293)

>  <Ventricular EC25>
0.77 µM

$$$$
>  <compound>
C[C@@H](NC(=O)Cc1cc2c(F)c(F)ccc2[nH]c1=O)c1cnc(C#N)cn1 (single isomer, unassigned)

>  <target-system>
Porcine ventricle myofibrils (ventricular myosin ATPase) (Sus scrofa, UniProt P79293)

>  <Ventricular EC25>
0.15 µM

$$$$
>  <compound>
Cc1nc(C#N)cnc1[C@@H](C)NC(=O)C1(c2cc3c(F)c(F)ccc3[nH]c2=O)CC1 (single isomer, unassigned)

>  <target-system>
Porcine ventricle myofibrils (ventricular myosin ATPase) (Sus scrofa, UniProt P79293)

>  <Ventricular EC25>
100.00 µM

$$$$
>  <compound>
Cc1c(C2(C(=O)N[C@H](C)c3nccc(C#N)n3)CC2)c(=O)[nH]c2ccc(F)cc12 (single isomer, unassigned)

>  <target-system>
Porcine ventricle myofibrils (ventricular myosin ATPase) (Sus scrofa, UniProt P79293)

>  <Ventricular EC25>
100.00 µM

$$$$
